test system: HOP-62 NSCLC; assay: NCI tumour cell line growth inhibition, 48 h
Please go through the items and note down their TGI.

Field TGI (entry "Cc1cc(NS(=O)(=O)c2ccc(NC(=O)c3cccc4c(Nc5ccc(S(=O)(=O)Nc6cc(C)on6)cc5)c5ccc(Cl)cc5nc34)cc2)no1" ) reads > 100 µM

Field TGI (entry "CCc1cccc(C(C)C)c1NC(=O)C(=O)Nn1c(=S)[nH]c2ccccc2c1=O" ) reads > 100 µM

Field TGI (entry "C=C1C(=O)O[C@H]2C(=O)[C@H](C)CCC/C(C)=C/CC[C@@]3(C)O[C@@H]3C[C@@H]12" ) reads 24.3 µM

Field TGI (entry "Cc1ccc2c(-c3ccnc(Nc4cccc(C(F)(F)F)c4)n3)c(-c3ccccc3)nn2n1" ) reads > 25 µM

Field TGI (entry "C=CCc1cc(O)ccc1O" ) reads > 100 µM
